src = paper PMC3873039

# pEC50 values compiled below
Test system: all leukemia cell lines
Assay: Apoptosis
Type: cell-based, human
Conditions: Homo sapiens, 24 h, read-out: AP50 values (range over leukemia cell lines)
pEC50: −log10 of the molar value.

Study these solved cases before continuing.
Cc1cc(O)c2c(c1)C(=O)c1cc(O)cc(O)c1C2=O ... 4.57 to 5.70
O=c1c(O)c(-c2ccc(O)c(O)c2)oc2cc(O)cc(O)c12 ... 4.30 to 4.72

# ---- query compound ----
The value of pEC50 measured for the compound O=c1cc(-c2ccc(O)cc2)oc2cc(O)cc(O)c12 turned out to be 3.82 to 4.46
